Method: CCTE_Shafer_MEA_dev_burst_rate: CCTE's Neural Network Formation Assay for Burst Rate, Shafer Lab (AID 2284042);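 on AC50: potency for loss of burst rate below DMSO control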
Description: CCTE_Shafer_MEA_dev assay is conducted using Axion Biosystems 48 well microelectrode array (MEA) plates and Maestro recording system. Each well of the MEA plate contains a grid of 16 microelectrodes embedded in the culture surface. Electrically active cells, such as neurons, can be cultured over the electrodes, and electrical activity in these cells can be recorded extracellularly. […]
Calls of active or inactive are those of the source. How the source made its calls: active means hit-call score of the fitted dose curve at least 0.9, where 1 is the maximum; inactive means score below 0.9.
Readout Name: AC50

Below: 4 compounds and their reported AC50.
O=C1C2(Cl)C3(Cl)C4(Cl)C(Cl)(Cl)C5(Cl)C3(Cl)C1(Cl)C5(Cl)C24Cl (stereo unspecified); 3.99 µM (active)
C=C(C)C(=O)[O][Sn]([CH2]CCC)([CH2]CCC)[CH2]CCC; 0.0225 µM (active)
O=C(O)C(F)(F)C(F)(F)C(F)(F)C(F)(F)C(F)(F)C(F)(F)C(F)(F)C(F)(F)C(F)(F)C(F)(F)F; inactive
CCC(=O)C(CC(C)N(C)C)(c1ccccc1)c1ccccc1 (stereo unspecified); 4.16 µM (active)

Please indicate AC50 recorded for O=C(O)C(F)(F)C(F)(F)C(F)(F)C(F)(F)C(F)(F)C(F)(F)F inactive

Please indicate AC50 recorded for Cn1sc(Cl)cc1=O 5.73 µM (active)
